Hey, just so you know, these numbers are from patent US6355658B1.

Attribute: melting point

## Task Write down melting point measured for item "O=C(Oc1ccccn1)c1cc2cc(CCl)ccc2oc1=O"
## Result 125 to 129 °C

Further cases:
## Task Write down melting point measured for item "Cc1ccc2oc(=O)c(C(=O)Oc3cc(F)ccc3[N+](=O)[O-])cc2c1"
## Result 224 to 226 °C

## Task Write down melting point measured for item "O=C(Oc1cc([N+](=O)[O-])ccc1[N+](=O)[O-])c1cc2ccccc2oc1=O"
## Result 223 to 225 °C

## Task Write down melting point measured for item "O=C(Oc1ccccc1[N+](=O)[O-])c1cc2cc(CCl)ccc2oc1=O"
## Result 163 to 164 °C

## Task Write down melting point measured for item "Cc1ccc2oc(=O)c(C(=O)Oc3cncc(Cl)c3)cc2c1"
## Result 215 to 217 °C

## Task Write down melting point measured for item "Cc1ccc(OC(=O)c2cc3cc(CCl)ccc3oc2=O)cn1"
## Result 205 to 208 °C

## Task Write down melting point measured for item "Cc1ccc2oc(=O)c(C(=O)Oc3cc(F)ccc3Br)cc2c1"
## Result 187 to 190 °C

## Task Write down melting point measured for item "O=C(OC1CCCCC1)c1cc2cc(CCl)ccc2oc1=O"
## Result 185 to 186 °C

## Task Write down melting point measured for item "CCC(=O)OCc1ccc2oc(=O)c(C(=O)Oc3cncc(Cl)c3)cc2c1"
## Result 156 to 158 °C

## Task Write down melting point measured for item "O=C(OC1CCCCCCCCCCC1)c1cc2cc(CCl)ccc2oc1=O"
## Result 164 to 167 °C

## Task Write down melting point measured for item "CC(=O)OCc1ccc2oc(=O)c(C(=O)Oc3cc(Cl)cc(Cl)c3)cc2c1"
## Result 146 to 150 °C
